Molecular target: HsAPT2 (Homo sapiens, UniProt O95372)
Sequence (O95372 whole entry): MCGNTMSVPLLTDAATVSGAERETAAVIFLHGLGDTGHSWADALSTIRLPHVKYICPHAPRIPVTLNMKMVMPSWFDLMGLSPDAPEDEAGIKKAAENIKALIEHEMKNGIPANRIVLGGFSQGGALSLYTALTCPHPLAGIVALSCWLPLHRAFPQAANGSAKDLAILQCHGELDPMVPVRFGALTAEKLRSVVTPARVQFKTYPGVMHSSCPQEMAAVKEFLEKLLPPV
Test: 4-NPO esterase activity assay, recombinant HsAPT2
Type: biochemical
Set-up: made in house; host or cells: E. coli BL21(DE3)pLysS
Settings: rHsAPT2, 4-NPO substrate, 30 minutes preincubation at 37°C
Description: We recently performed a phenotypic screen to identify small-molecule modulators of host cell invasion by the apicomplexan parasite T. gondii. […] To measure the enzymatic activity of recombinant HsAPT1 and HsAPT2, we used the previously reported substrate, 4-nitrophenyl octanoate (4-NPO), in which enzymatic cleavage of the ester linkage can be measured by UV/Vis spectroscopy upon release of 4-nitrophenolate (Fig 1A). […]
pIC50: −log10 of the molar value.
MEASURED_METRIC: pIC50

These recorded examples may help you get a feel for the data.
O=c1oc(OCCBr)c(Cl)c2ccc(NC(=S)Nc3ccccc3)cc12 = 5.04
CCOc1oc(=O)c2cc(NC(=S)Nc3ccccc3)ccc2c1Cl = 5.54
COc1ccc(-c2ccc3n2[B-](F)(F)[N+]2=C(C)C(CCC(=O)NCCCn4cc(CCOc5oc(=O)c6cc(N)ccc6c5Cl)nn4)=C(C)C2=C3)cc1 = 5.74
O=c1oc(Cl)c(Cl)c2ccccc12 [DCI, dichloroisocoumarin, reference compound] = 5.57

[a] CC(CBr)Oc1oc(=O)c2cc(N)ccc2c1Cl (centres unmarked)
[b] O=C(O)c1cccc(NC(=S)Nc2ccc3c(Cl)c(OCCBr)oc(=O)c3c2)c1
[c] CCCCCCCCCC[C@@H]1C(=O)O[C@H]1CCc1ccc(OC)c(OC)c1 [Palmostatin B, palmostatin B, reference compound]
[d] O=C(O)c1ccc(NC(=S)Nc2ccc3c(Cl)c(OCCBr)oc(=O)c3c2)cc1
Arrange the 4 entries by pIC50 so the values rise. List each label, following the requested order.
d, b, a, c
